subject_of_test: Fructose-bisphosphate aldolase (Giardia intestinalis (strain ATCC 50803 / WB clone C6))
assay_summary: qHTS Assay for Inhibitors of Fructose-1,6-bisphosphate Aldolase from Giardia Lamblia; further: nearly all actives have a fitted effect of over 55% in size
condition_notes: purified Giardia FBPA; series mostly up to 59.6 µM
The whole screen tested about 290,000 compounds, of which about 2,100 (0.72%) were called active. Roughly 4% stayed inconclusive and do not appear here. The call rests on the fitted dose curve; in most records, active means well fitted inhibition curve with a large enough effect; inconclusive means small, poorly fitted or top-dose-only effect, or effect the other way; inactive means flat fitted curve, though single readings scatter. Shown is part of a subset that was picked to be rich in actives.
Outcomes: y = active, n = inactive

{"structure_smiles_string": "COC(=O)c1c(NC(=O)COc2ccc(Cl)cc2Cl)sc2c1CC(C)(C)NC2(C)C", "category_label": "n"}
{"structure_smiles_string": "CN1CCN(CCCCOc2cccc3ccccc23)CC1", "category_label": "n"}
{"structure_smiles_string": "C/C(=N\\NC(=O)c1cccc([N+](=O)[O-])c1)c1cccnc1", "category_label": "n"}
{"structure_smiles_string": "CCN(CC)c1ccc([N+](=O)[O-])c2cccnc12", "category_label": "n"}
{"structure_smiles_string": "CC(=O)c1ccc(OCCN2CCOCC2)cc1", "category_label": "n"}
{"structure_smiles_string": "Cc1ccccc1NC(=O)C1CCN(C(=O)NC2CCCCC2)CC1", "category_label": "n"}
{"structure_smiles_string": "O=[N+]([O-])c1cc([N+](=O)[O-])c2cccnc2c1O", "category_label": "y"}
{"structure_smiles_string": "Cc1nc(N2CCOCC2)sc1C(=O)NN", "category_label": "y"}
{"structure_smiles_string": "C/C(=N\\NC(N)=S)c1cccnc1", "category_label": "y"}
{"structure_smiles_string": "Cc1cccc(C)c1OCCN1CCOCC1", "category_label": "y"}
{"structure_smiles_string": "Cc1ccc(S(=O)(=O)NNC(=S)NC(C)(C)C)cc1", "category_label": "y"}
{"structure_smiles_string": "Cc1nc(-c2ccc(Cl)cc2)sc1C(=O)NN", "category_label": "n"}

----------
subject_of_test: Fructose-bisphosphate aldolase (Giardia intestinalis (strain ATCC 50803 / WB clone C6))
assay_summary: qHTS Assay for Inhibitors of Fructose-1,6-bisphosphate Aldolase from Giardia Lamblia; further: nearly all actives have a fitted effect of over 55% in size
condition_notes: purified Giardia FBPA; series mostly up to 59.6 µM
Screen size: about 290,000 compounds; about 2,100 (0.72%) were called active. Another 4% or so got no clear call; they are omitted. The call rests on the fitted dose curve; in most records, active means well fitted inhibition curve with a large enough effect; inconclusive means small, poorly fitted or top-dose-only effect, or effect the other way; inactive means flat fitted curve, though single readings scatter. What follows is part of a selection rich in actives, with near analogues and random picks from the rest.
Classes used: active, inactive

{"molecule": "COc1ccc2c(c1)C(=C(C#N)C#N)C(=O)N2CCc1ccccc1", "category_label": "active"}
{"molecule": "O=C(N/N=C/c1ccccn1)c1cccnc1", "category_label": "active"}
{"molecule": "C#CCN1C(=O)C(O)(CC(=O)c2cc(OC)ccc2OC)c2ccccc21 (stereo unspecified)", "category_label": "inactive"}
{"molecule": "CC[C@]1(c2ccccc2OC)C(=O)N(C(=O)OC)N1C(=O)OC", "category_label": "inactive"}
{"molecule": "O=S(=O)(c1ccc(Br)c2ccccc12)N1CCOCC1", "category_label": "inactive"}
{"molecule": "C=C(Br)Cn1c(CCCC)nc2ccccc21", "category_label": "inactive"}

----------
subject_of_test: Fructose-bisphosphate aldolase (Giardia intestinalis (strain ATCC 50803 / WB clone C6))
assay_summary: qHTS Assay for Inhibitors of Fructose-1,6-bisphosphate Aldolase from Giardia Lamblia; further: nearly all actives have a fitted effect of over 55% in size
condition_notes: purified Giardia FBPA; series mostly up to 59.6 µM
About 2,100 (0.72%) of roughly 290,000 compounds were called active. Inconclusive results (about 4%) are left out. The call rests on the fitted dose curve; in most records, active means well fitted inhibition curve with a large enough effect; inconclusive means small, poorly fitted or top-dose-only effect, or effect the other way; inactive means flat fitted curve, though single readings scatter. The sample holds actives, similar compounds and a random draw of the others, so the mix is not that of the screen.
Outcomes: T = active, F = inactive

{"molecule": "C=CCNC(=S)/N=c1/ccccn1Cc1ccccc1", "category_label": "T"}
{"molecule": "CN(C)C(=O)CSc1n[nH]c(-c2ccco2)n1", "category_label": "T"}
{"molecule": "O=[N+]([O-])c1ccc(Sc2n[nH]c(-c3ccco3)n2)nc1", "category_label": "F"}
{"molecule": "NS(=O)(=O)c1ccccc1NC(=O)c1c(O)c2ccccc2[nH]c1=O", "category_label": "F"}
{"molecule": "Cc1ccc(-n2c(SCC(=O)N3CCC(C(=O)O)CC3)nc3ccccc3c2=O)cc1C", "category_label": "F"}
{"molecule": "CNC(=S)NNC(=O)c1cccn(Cc2ccccc2)c1=O", "category_label": "F"}
{"molecule": "Clc1cccc(CN2COc3c(cc(Cl)c4cccnc34)C2)c1", "category_label": "T"}
{"molecule": "Cn1nccc1C(=O)N1CCCC(C(=O)c2ccc(Oc3ccccc3)cc2)C1 (stereo unspecified)", "category_label": "F"}
{"molecule": "CN(C)CCCn1c(=O)n(Cc2ccccc2)c(=O)c2c3c(sc21)CCCCC3", "category_label": "F"}
{"molecule": "CN(C)c1ccc(NC(=O)CSc2n[nH]c(-c3ccco3)n2)cc1", "category_label": "F"}
{"molecule": "Fc1ccc(-c2ccc(NCCN3CCOCC3)nn2)cc1", "category_label": "F"}
